The reported measurements were obtained from PubChem BioAssay (NCI).

test: NCI Yeast Anticancer Drug Screen. Data for the wt2 strain (AID 169);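 further: 0% = growth of vehicle-treated yeast cultures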; settings: S. cerevisiae wt2 strain growth inhibition; at 1.2 µM; stronger effect = higher value
The panel holds about 79,000 compounds, 15% with a hit somewhere; the sample as a whole holds those more often.
result_type: growth inhibition (%)
The figure you give is taken to be in %; do not add the unit.

Below are worked cases with known answers.
Field growth inhibition (entry OCCN(CCO)c1ccc2c(c1)Cc1ccccc1-2 ) reads 5

Field growth inhibition (entry N#CC(=S)Nc1cccc(Cl)c1 ) reads 2

Field growth inhibition (entry c1ccc(N2N=C3N(c4ccccc4)C2N3c2ccccc2)cc1 ) reads -17

---
Field growth inhibition (entry CCCCC1=NNC(=O)C1 ) reads -40

---

assay: NCI Yeast Anticancer Drug Screen. Data for the mlh1 strain (AID 171);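 further: 0% = growth of vehicle-treated control cultures of the same strain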; details: S. cerevisiae mlh1 strain growth inhibition; at 3.7 µM; stronger effect = higher value
This is part of a sample that, as a whole, favours compounds with a hit. Of some 79,000 tested, about 15% had one in any assay. Residues, ends and D or L forms follow the SMILES beside them. *: point of attachment. CH2Cl = ClC*
Threshold check on growth inhibition: at or above -20% gives 1.0, strictly below gives 0.0.

Could you please find out whether CC(=O)NC(CC(C)C)C(=O)NC(Cc1ccccc1)C(=O)CCl (stereo not drawn) (Ac-Leu-Phe-CH2Cl; configuration not given here) has growth inhibition that meets -20% or exceeds it? 1.0

---
Could you please find out whether NNC(=S)Nc1cccc(Cl)c1 has growth inhibition that meets -20% or exceeds it? 1.0

Could you please find out whether c1ccc2c(c1)ccc1c3ccncc3ccc21 has growth inhibition that meets -20% or exceeds it? 1.0

Could you please find out whether Cc1ccc(S(=O)(=O)N(C)c2ccc(Cl)cc2C2=NCCc3ccccc32)cc1 has growth inhibition that meets -20% or exceeds it? 0.0

Could you please find out whether NC(=O)N1c2ccccc2C=Cc2ccccc21 has growth inhibition that meets -20% or exceeds it? 0.0

Could you please find out whether O=c1[nH]cc(/C=N\Nc2ccccc2)c(=O)[nH]1 has growth inhibition that meets -20% or exceeds it? 1.0

---

assay: NCI Yeast Anticancer Drug Screen. Data for the bub3 strain (AID 167); details: S. cerevisiae bub3 mutant strain, at 50.0 µM (retest, dose inferred, filed as 5.0), stronger effect = higher value
The panel holds about 79,000 compounds, 15% with a hit somewhere; the sample as a whole holds those more often.
Threshold check on growth inhibition: at or above 90% gives true, strictly below gives false.

Examples from the recorded data:
Could you please find out whether CCOC(=O)C1=C(C)NC(C)=C(C(=O)OCC)C1c1ccccc1Cl has growth inhibition that meets 90% or exceeds it? false

Could you please find out whether Cc1cc(N=C2C=CC(=[N+](C)C)C=C2)c(N)cc1N has growth inhibition that meets 90% or exceeds it? false

Could you please find out whether COc1ccc(S(=O)(=O)N/N=C\c2cc([N+](=O)[O-])cc(I)c2O)c(OC)c1OC has growth inhibition that meets 90% or exceeds it? false

Could you please find out whether COc1ccc(N2C(=O)CC(Cl)C2=O)cc1 (centres undefined) has growth inhibition that meets 90% or exceeds it? false

Could you please find out whether Cc1cc(O)c2c(c1O)C(=O)C13C(=C2O)C(=O)C2C(O)C1C1C(O)C3C(=O)C3=C(O)c4c(O)cc(C)c(O)c4C(=O)C321 (centres undefined) has growth inhibition that meets 90% or exceeds it? false

---
Could you please find out whether CC(=O)N1C(=O)/C(=C\C(=O)c2ccc([N+](=O)[O-])cc2)c2ccccc21 has growth inhibition that meets 90% or exceeds it? true

Could you please find out whether COc1cc(N(C)C)ccc1/C=C\c1ccnc2ccccc12 has growth inhibition that meets 90% or exceeds it? false

Could you please find out whether CC(=O)[C@]1(O)Cc2c(O)c3c(c(O)c2[C@@H](OC2CC(N)C(O)C(C)O2)C1)C(=O)c1c(OCc2ccccc2)cccc1C3=O (some centres undefined) has growth inhibition that meets 90% or exceeds it? false

Could you please find out whether Cn1ncc2cc3c(Nc4ccc(Cl)cc4)cccc3nc21 has growth inhibition that meets 90% or exceeds it? false

---

assay: NCI Yeast Anticancer Drug Screen. Data for the CLN2oe strain (AID 163);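 further: 0% = growth of vehicle-only control cultures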; settings: S. cerevisiae CLN2oe strain, at 3.7 µM, stronger effect = higher value
About 79,000 compounds went through this panel and 15% of them were active in at least one assay; those are over-represented in the sample as a whole. Activity calls are given as the source filed them. Rule as the data show it: active = growth inhibition above about 70%; inactive = the rest. Residues, ends and D or L forms follow the SMILES beside them. *: point of attachment. CH2Cl = ClC*
result_type: growth inhibition

Below are worked cases with known answers.
Field growth inhibition (entry O=C(NCCCCCN1CCC2(CCCCC2)CC1)C(C1CCCCC1)C1CCCCC1 ) reads 4% (inactive)

Field growth inhibition (entry Cc1c(-c2ccccc2)[nH]c2ccccc12 ) reads 3% (inactive)

Field growth inhibition (entry CCC(C)(c1ccc(O)c(C)c1)c1ccc(O)c(C)c1 ) reads -28% (inactive)

Field growth inhibition (entry O=[N+]([O-])c1c(/C=N/Nc2ccccc2)oc(-c2ccc3c(c2)OCO3)c1-c1ccc2c(c1)OCO2 ) reads 4% (inactive)

Field growth inhibition (entry CCOC(=O)C1=C(C)NC(C)=C(C(=O)OCC)C1c1ccc(C)cc1 ) reads 13% (inactive)

Field growth inhibition (entry COc1cc(N(C)C)ccc1/C=C\c1ccnc2ccccc12 ) reads -13% (inactive)

Field growth inhibition (entry COc1cccc(C(c2cc3c(cc2O)OCO3)N2CCOCC2)c1OC (stereo unspecified) ) reads -3% (inactive)

Field growth inhibition (entry O=C(O)c1ccccc1.[Ag] ) reads 101% (active)

Field growth inhibition (entry c1ccc2c(c1)ccc1c3ccncc3ccc21 ) reads 13% (inactive)

Field growth inhibition (entry CCCc1[nH]nc(C(N)=O)c1N=NN(C)C ) reads -3% (inactive)

---
Field growth inhibition (entry O=C1OC2C(O)COC2(OCc2c[nH]c3ccccc23)C1O (stereo unspecified) (tested in a mixture with another compound) ) reads 1% (inactive)

Field growth inhibition (entry CC(C)(O)c1ccccc1C(c1ccccc1)c1ccccc1 ) reads -1% (inactive)

Field growth inhibition (entry O=C(CNS(=O)(=O)Cc1ccccc1)NNc1ccccc1 ) reads 5% (inactive)

Field growth inhibition (entry CO[C@@]12[C@H](COC(N)=O)C3=C(C(=O)C(C)=C(N)C3=O)N1C[C@@H]1N[C@@H]12 ) reads 0% (inactive)

Field growth inhibition (entry Cc1ccc2c(ccc(/C=C/c3ccc(O)c4ncccc34)[n+]2C)c1 ) reads 18% (inactive)

Field growth inhibition (entry CC(=O)NC(CC(C)C)C(=O)NC(Cc1ccccc1)C(=O)CCl (stereo not drawn) (Ac-Leu-Phe-CH2Cl; configuration not given here) ) reads -7% (inactive)

Field growth inhibition (entry CCOC(=O)Nc1ccc2c(c1)Cc1ccccc1-2 ) reads -12% (inactive)

Field growth inhibition (entry N#CC(=C1C=CC(=NO)C=C1)c1ccccc1 ) reads 10% (inactive)

Field growth inhibition (entry Nc1ccc(S(=O)(=O)Nc2ccc(Nc3c4ccccc4nc4ccccc34)cc2)cc1 ) reads -5% (inactive)

Field growth inhibition (entry BrCc1ccccc1C(c1ccccc1)c1ccccc1 ) reads 64% (inactive)

Field growth inhibition (entry O=C(CCc1ccccc1)ON1C(=S)C(c2ccccc2)(c2ccccc2)N=C1Sc1ccccc1 ) reads -8% (inactive)

---

assay: NCI Yeast Anticancer Drug Screen. Data for the rad14 strain (AID 159);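 further: 0% = growth of vehicle-treated control cultures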; details: S. cerevisiae rad14 strain growth inhibition; at 3.7 µM; stronger effect = higher value
About 79,000 compounds went through this panel and 15% of them were active in at least one assay; those are over-represented in the sample as a whole.
The entries below come with measured growth inhibition values attached.
The figure you give is taken to be in %; do not add the unit.

Field growth inhibition (entry CC(C)(C)c1ccc(O)c(C(c2ccc([N+](=O)[O-])cc2)c2cc(C(C)(C)C)ccc2O)c1 ) reads -24

Field growth inhibition (entry CCOC(=O)CNC(=O)c1[nH]cnc1/N=N/N(C)C ) reads 2

Field growth inhibition (entry CCCCCC(=O)c1ccc(O)cc1O ) reads -5

Field growth inhibition (entry N#CC(=C1C=CC(=NO)C=C1)c1ccccc1 ) reads 24

---
Field growth inhibition (entry CCC(c1ccc(O)cc1)C(CC)c1ccc(OCCN)cc1 (configuration not stated) ) reads 1

Field growth inhibition (entry Cc1cc(O)c2c(c1O)C(=O)C13C(=C2O)C(=O)C2C(O)C1C1C(O)C3C(=O)C3=C(O)c4c(O)cc(C)c(O)c4C(=O)C321 (configuration not stated) ) reads 9

Field growth inhibition (entry Cc1ccc(I)cc1N=C=S ) reads -10

Field growth inhibition (entry COC(=O)c1ccc2c(c1)Cc1ccccc1-2 ) reads -6

Field growth inhibition (entry Cc1ccccc1NC(=O)Cc1csc(N/N=C2\NC(=O)/C(=C/c3cccc([N+](=O)[O-])c3)S2)n1 ) reads 2

Field growth inhibition (entry CCn1ncc(N=O)c1N ) reads 4

Field growth inhibition (entry [Pt].c1ccc(P(CCP(c2ccccc2)c2ccccc2)CCP(c2ccccc2)c2ccccc2)cc1 ) reads -2

Field growth inhibition (entry COc1ccc(N)c2c1C(=O)c1ccccc1C2=O ) reads -23
